- assayed system: HLA-A*02:16
- assay explanation: IEDB peptide-MHC binding, purified MHC/competitive/fluorescence; filed as Kd, often an IC50 or EC50 that approximates it; bounds were set here for any values at or beyond the usual limits of such assays
- reported conditions: source organism: Vibrio vulnificus
observed property: Kd

>>> df
   ordered_residues  observed_property  observed_measurement
0         DEWECTRDD                 Kd               ≥ 20 µM

---

- assayed system: HLA-A*11:01
- assay explanation: IEDB peptide-MHC binding, purified MHC/direct/fluorescence; filed as Kd, often an IC50 or EC50 that approximates it; bounds were set here for any values at or beyond the usual limits of such assays
- reported conditions: source organism: SARS-CoV1
Kd listing for selected sequences.
observed property: Kd

>>> print(df.to_string())
   ordered_residues  observed_property  observed_measurement
0         NQATTKTTF                 Kd             ≥ 79.9 µM
1         TTLPVNVAF                 Kd             ≥ 27.3 µM
2         DRYPANAIV                 Kd             ≥ 25.4 µM
3         FMGRIRSVY                 Kd               18.2 µM

---

- assayed system: HLA-B*45:06
- assay explanation: IEDB peptide-MHC binding, purified MHC/competitive/fluorescence; filed as Kd, often an IC50 or EC50 that approximates it; bounds were set here for any values at or beyond the usual limits of such assays
- reported conditions: source organism: Gorilla gorilla
observed property: Kd

>>> df
   ordered_residues  observed_measurement
0         VMAPRTLVL                ≥ 5 µM

---

pKd listing for selected sequences.
- assayed system: HLA-A*26:01
- assay explanation: IEDB peptide-MHC binding, purified MHC/competitive/radioactivity; filed as Kd, often an IC50 or EC50 that approximates it; bounds were set here for any values at or beyond the usual limits of such assays
- reported conditions: source organism: Mammarenavirus guanaritoense
pKd: −log10 of the molar value.
observed property: pKd

>>> df
   ordered_residues  observed_property  comparison_symbol  observed_measurement
0        DLMSMSDGEF                pKd                  =                  6.17
1         GTDPYRPSF                pKd                  ≤                  4.11
2        EFSRSILWDY                pKd                  =                  4.99

---

- assayed system: HLA-B*51:01
- assay explanation: IEDB peptide-MHC binding, purified MHC/competitive/fluorescence; filed as Kd, often an IC50 or EC50 that approximates it; bounds were set here for any values at or beyond the usual limits of such assays
- reported conditions: source organism: Vibrio cholerae 2740-80
observed property: Kd

   ordered_residues  observed_property  observed_measurement
0         MGMEQTMSV                 Kd                ≥ 5 µM
1         HSYLWDHQM                 Kd               ≥ 20 µM

---

- assayed system: HLA-A*02:01
- assay explanation: IEDB peptide-MHC binding, purified MHC/direct/fluorescence; filed as Kd, often an IC50 or EC50 that approximates it; bounds were set here for any values at or beyond the usual limits of such assays
- reported conditions: source organism: Homo sapiens
observed property: Kd

>>> print(df.to_string())
   ordered_residues  observed_measurement
0         ALPPPPPPP               12.7 µM

---

- assayed system: HLA-B*44:02
- assay explanation: IEDB peptide-MHC binding, purified MHC/direct/fluorescence; filed as Kd, often an IC50 or EC50 that approximates it; bounds were set here for any values at or beyond the usual limits of such assays
- reported conditions: source organism: Vibrio cholerae
observed property: Kd

In [3]: df
Out[3]:
   ordered_residues  observed_property  observed_measurement
0         YFRNSGMTY                 Kd               ≥ 20 µM
1         DTDISQLHH                 Kd               ≥ 20 µM
2         IHYAGWVSL                 Kd               ≥ 20 µM

---

- assayed system: HLA-A*31:01
- assay explanation: IEDB peptide-MHC binding, purified MHC/competitive/fluorescence; filed as Kd, often an IC50 or EC50 that approximates it; bounds were set here for any values at or beyond the usual limits of such assays
- reported conditions: source organism: Encephalitozoon cuniculi GB-M1
observed property: Kd

In [3]: df
Out[3]:
   ordered_residues  assayed_system  observed_measurement
0         ILSFPYLFK     HLA-A*31:01               ≥ 20 µM

---

- assayed system: HLA-A*26:02
- assay explanation: IEDB peptide-MHC binding, purified MHC/competitive/fluorescence; filed as Kd, often an IC50 or EC50 that approximates it; bounds were set here for any values at or beyond the usual limits of such assays
- reported conditions: source organism: Human immunodeficiency virus 1
observed property: Kd

In [3]: df
Out[3]:
   ordered_residues  observed_property  observed_measurement
0       RSLYNTIATLY                 Kd              0.921 µM
1         DIKDTKEAL                 Kd               ≥ 20 µM
2        IATLYCVHQK                 Kd               ≥ 20 µM

---

- assayed system: HLA-B*44:02
- assay explanation: IEDB peptide-MHC binding, purified MHC/competitive/fluorescence; filed as Kd, often an IC50 or EC50 that approximates it; bounds were set here for any values at or beyond the usual limits of such assays
- reported conditions: source organism: Shigella flexneri 5 str. 8401
pKd: −log10 of the molar value.
observed property: pKd

In [3]: df
Out[3]:
   ordered_residues  observed_measurement
0         FGALFMWLL                ≤ 5.30

---

- assayed system: HLA-A*24:02
- assay explanation: IEDB peptide-MHC binding, purified MHC/competitive/radioactivity; filed as Kd, often an IC50 or EC50 that approximates it; bounds were set here for any values at or beyond the usual limits of such assays
- reported conditions: source organism: Lassa virus GA391
observed property: Kd

   ordered_residues  observed_measurement
0        VFRTSTPKVV             ≥ 70.3 µM

---

- assayed system: HLA-B*46:01
- assay explanation: IEDB peptide-MHC binding, purified MHC/direct/fluorescence; filed as Kd, often an IC50 or EC50 that approximates it; bounds were set here for any values at or beyond the usual limits of such assays
- reported conditions: source organism: Burkholderia mallei ATCC 23344
observed property: Kd

In [3]: df
Out[3]:
   ordered_residues  observed_property  observed_measurement
0         MVFGRFSFA                 Kd               ≥ 20 µM

---

- assayed system: HLA-C*12:03
- assay explanation: IEDB peptide-MHC binding, purified MHC/direct/fluorescence; filed as Kd, often an IC50 or EC50 that approximates it; bounds were set here for any values at or beyond the usual limits of such assays
- reported conditions: source organism: Vaccinia virus Copenhagen
observed property: Kd

   ordered_residues  observed_property  observed_measurement
0         RVYEALYYV                 Kd                 26 nM

---

- assayed system: HLA-A*31:01
- assay explanation: IEDB peptide-MHC binding, purified MHC/competitive/fluorescence; filed as Kd, often an IC50 or EC50 that approximates it; bounds were set here for any values at or beyond the usual limits of such assays
- reported conditions: source organism: Vaccinia virus WR
pKd: −log10 of the molar value.
observed property: pKd

   ordered_residues  assayed_system  observed_property  observed_measurement
0         NYFNRMFHF     HLA-A*31:01                pKd                  5.64

---

- assayed system: HLA-A*23:01
- assay explanation: IEDB peptide-MHC binding, purified MHC/direct/fluorescence; filed as Kd, often an IC50 or EC50 that approximates it; bounds were set here for any values at or beyond the usual limits of such assays
- reported conditions: source organism: Vibrio cholerae V52
observed property: Kd

>>> df
   ordered_residues  observed_property  observed_measurement
0         MGMEQTMSV                 Kd               ≥ 20 µM

---

- assayed system: HLA-A*31:01
- assay explanation: IEDB peptide-MHC binding, purified MHC/competitive/fluorescence; filed as Kd, often an IC50 or EC50 that approximates it; bounds were set here for any values at or beyond the usual limits of such assays
- reported conditions: source organism: Burkholderia pseudomallei K96243
observed property: Kd (nM)

>>> print(df.to_string())
   ordered_residues  unit_name  observed_measurement
0         LMRRFRFTV         nM                   262
